# target or test system: NIPP1 FHA domain (15N-labelled, for NMR)
# Sequence (Q12972 44-106): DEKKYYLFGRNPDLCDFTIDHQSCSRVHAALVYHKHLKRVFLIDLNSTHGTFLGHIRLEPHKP
# test method notes: NMR titration
Non-standard residues stand in square brackets, D forms with d. No end group written: not given here. pT = C[C@@H](OP(=O)(O)O)[C@H](N)C(=O)O
readout kind: Kd (µM)
Quick note: give the figure in µM, leave out the unit.

Incoming: Reported Kd, binder ANSRCQ[pT]PIKMK [EZH2 410-421 peptide, phosphorylated at Thr416 (pTP5)] : ____
Outgoing: 1900
